assay: HTS Assay for Allosteric Antagonists of the Human D2 Dopamine Receptor: Hit Validation in HTRF (AID 624455); conditions: Cells stably expressing D1 dopamine receptor, inhibition mode; series mostly up to 46.1 µM;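 also: stable D1 dopamine receptor cell line scored for blocking the D1 response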
Records with an inconclusive call do not appear. Activity calls are given as the source filed them. Calls follow the shape of the dose curve; as a rule, active = well fitted inhibition curve with a large enough effect; inconclusive = small, poorly fitted or top-dose-only effect; inactive = no such curve, though single readings can be large or run the other way.
Outcomes: 1 (yes) = active, 0 (no) = inactive

> print(dat)
                                    compound  answer.label
 1    O=C(Nc1ccccc1)c1cc([N+](=O)[O-])ccc1Cl        0 (no)
 2  CCNC(=O)[C@H]1O[C@@H](n2cnc3c(N)nc(NCCc4ccc(CCC(=O)O)cc4)nc32)[C@H](O)[C@@H]1O       1 (yes)
 3      NC(N)=NC(=O)c1nc(Cl)c(N2CCCCCC2)nc1N        0 (no)
 4  NCC1OC(O[C@H]2[C@H](O)[C@@H](OC3C(O)C(N)CC(N)C3OC3OC(CO)C(O)C(O)C3N)O[C@@H]2CO)C(N)C(O)C1O (some centres not stated)        0 (no)
 5  CC1CN(S(=O)(=O)c2cccc3cnccc23)CCN1 (configuration not stated)        0 (no)
 6  O=c1[nH]c2cc(C(F)(F)F)ccc2n1-c1cc(C(F)(F)F)ccc1O        0 (no)
 7  CCCCCCCCCCCCCCCCCC(=O)OC(CC(=O)O)C[N+](C)(C)C (configuration not stated)        0 (no)
 8  Cc1nc2sccn2c(=O)c1CCN1CCC(=C(c2ccccc2)c2ccc(F)cc2)CC1        0 (no)
 9  N=c1ccn2c(n1)O[C@H]1[C@H](O)[C@@H](CO)O[C@H]12        0 (no)
10  COc1cccc(OC)c1OCCNCC1COc2ccccc2O1 (configuration not stated)       1 (yes)
11              NCCNC(=O)c1ncsc1-c1cccc(F)c1        0 (no)
12  CNc1ncnc2c1ncn2[C@@H]1O[C@H](CO)[C@@H](O)[C@H]1O        0 (no)
13  CN(C)CCC(c1ccc(Cl)cc1)c1ccccn1 (configuration not stated)        0 (no)
14  CCCCC/C=C\CC(O)/C=C/c1cccc(CC(O)CCCCO)n1 (configuration not stated)        0 (no)
15           CC(=O)N[C@H](C(=O)O)C(C)(C)SN=O        0 (no)
16  CN1C2CC(OC(=O)[C@H](CO)c3ccccc3)CC1C1OC12 (some centres not stated)        0 (no)
17  Nc1nc(Cl)nc2c1ncn2[C@@H]1O[C@H](CO)[C@@H](O)[C@H]1O        0 (no)
18  O=C(O)c1cc([N+](=O)[O-])ccc1NCCCc1ccccc1        0 (no)
19       O=C(/C=C/c1ccc(O)c(O)c1)OCCc1ccccc1        0 (no)
20          C=CC(C)=C[C@@]1(C)SC(=O)C(C)=C1O        0 (no)
21  Cc1ccccc1CNc1ncnc2c1ncn2C1OC(CO)C(O)C1O (configuration not stated)        0 (no)
22  CCc1c(C(=O)NCCc2ccc(N3CCCCC3)cc2)[nH]c2ccc(Cl)cc12        0 (no)
